Target: Nuclear receptor subfamily 1 group I member 3 (Homo sapiens, UniProt Q14994)
Sequence (Q14994 whole entry): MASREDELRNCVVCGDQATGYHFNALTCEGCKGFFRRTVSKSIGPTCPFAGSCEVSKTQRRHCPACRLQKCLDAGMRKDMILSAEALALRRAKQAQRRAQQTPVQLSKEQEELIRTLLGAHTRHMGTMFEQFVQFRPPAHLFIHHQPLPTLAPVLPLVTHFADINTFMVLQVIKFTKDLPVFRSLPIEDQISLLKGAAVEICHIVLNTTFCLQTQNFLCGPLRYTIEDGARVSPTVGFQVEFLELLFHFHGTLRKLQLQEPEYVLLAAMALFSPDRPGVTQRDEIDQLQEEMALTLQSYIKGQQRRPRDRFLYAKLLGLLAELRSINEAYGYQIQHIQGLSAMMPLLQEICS
Assay: Agonist activity at human constitutive androstane receptor expressed in HepG2 cells co-expressing CYP2B6 incubated for 23 hrs by One-Glo luciferase reporter gene assay

[
  {
    "Molecule smiles": "O=C(NCCc1ccc(Cl)c(Cl)c1)c1c(-c2ccc(Cl)cc2)nc2sccn12",
    "EC50, nM": 1100
  },
  {
    "Molecule smiles": "N#Cc1ccc(-c2nc3sccn3c2CNCCc2ccc(Cl)c(Cl)c2)cc1",
    "EC50, nM": 1500
  },
  {
    "Molecule smiles": "Clc1ccc(-c2nc3sccn3c2CNCCc2ccccc2)cc1",
    "EC50, nM": 740
  },
  {
    "Molecule smiles": "Clc1ccc(-c2nc3occn3c2CNCCc2ccc(Cl)c(Cl)c2)cc1",
    "EC50, nM": 1300
  },
  {
    "Molecule smiles": "c1ccc2c(c1)CC(NCc1c(-c3ccc4ccccc4c3)nc3occn13)C2",
    "EC50, nM": 660
  },
  {
    "Molecule smiles": "COc1ccc(-c2nc3sccn3c2CNCCc2ccc(Cl)c(Cl)c2)cc1",
    "EC50, nM": 670
  }
]

Data credit: ChEMBL document CHEMBL4351005
